system: Pulicinae; assay: In vitro systemic flea efficacy using membrane feeding assay.; assay type: functional
Listed here: items and their measured Activity.
Form entry: value (p.p.m.) — number only.

Below, each entry is followed by its recorded Activity result.
INSERT INTO measurements (compound, output_unit, reported_result) VALUES
  ('C=C(C)[C@H]1C(=O)c2c3c(cc4c5c(n1c24)[C@@]1(C)C(CC[C@H]2[C@](C)(/C=C/C=C(\CCC)C(N)=O)[C@@H](O)CC[C@@]21C)C5)C1=CC(C)(C)OC(C)(C)C1[C@@H]3O (stereo partly drawn)', 'p.p.m.', 10),
  ('C=C(C)[C@H]1C(=O)c2c3c(cc4c5c(n1c24)[C@@]1(C)C(CC[C@H]2[C@](C)(/C=C/C=C(\OC)C(=O)NC(C)(C)C)[C@@H](O)CC[C@@]21C)C5)C1=CC(C)(C)OC(C)(C)C1[C@@H]3O (stereo partly drawn)', 'p.p.m.', 1);

Entry C=C(C)[C@H]1C(=O)c2c3c(cc4c5c(n1c24)[C@@]1(C)C(CC[C@H]2[C@](C)(/C=C/C(C)=C/C(=O)NC(C)C)[C@@H](O)CC[C@@]21C)C5)C1=CC(C)(C)OC(C)(C)C1[C@@H]3O (stereo partly drawn) needs its Activity filled in; supply it.
1

====

tested on: Pulicinae; assay: In vitro systemic flea efficacy using membrane feeding assay.; type: functional
# Activity per record follows
Record the value in p.p.m., omitting the unit from your answer.

Example results:
INSERT INTO results (molecule, reported_result) VALUES
  ('C=C(C)[C@H]1C(=O)c2c3c(cc4c5c(n1c24)[C@@]1(C)C(CC[C@H]2[C@](C)(/C=C/C=C(\C#N)C(=O)N(C)C)[C@@H](O)CC[C@@]21C)C5)C1=CC(C)(C)OC(C)(C)C1[C@@H]3O (stereo partly drawn)', 1),
  ('C=C(C)[C@H]1C(=O)c2c3c(cc4c5c(n1c24)[C@@]1(C)C(CC[C@H]2[C@](C)(/C=C/C=C(\CCCC)C(=O)NCC)[C@@H](O)CC[C@@]21C)C5)C1=CC(C)(C)OC(C)(C)C1[C@@H]3O (stereo partly drawn)', 1);

Proceeding to the next molecule to report its Activity.
Indicate its recorded Activity; the molecule in question is C=C(C)[C@H]1C(=O)c2c3c(cc4c5c(n1c24)[C@@]1(C)C(CC[C@H]2[C@](C)(/C=C/C=C(\CC)C(=O)NCC)[C@@H](O)CC[C@@]21C)C5)C1=CC(C)(C)OC(C)(C)C1[C@@H]3O (stereo partly drawn)
1
